Data credit: patent US5089506A

Some compounds, each annotated with its measured pKi.
EXPERIMENTAL_TARGET: sigma receptor (Rattus norvegicus)
Construct: crude membrane preparations were prepared as follows; Brains from male Sprague-Dawley rats; from tissue; host or cells: whole brain of male Sprague-Dawley rats, crude membranes
PROTOCOL_NOTES: Radioreceptor assay: sigma receptor binding (displacement of [3H]-3-(+)-PPP) in crude rat brain membranes
Design: species or system male Sprague-Dawley rats
pKi: −log10 of the molar value.
TEST_READOUT: pKi

- CN1CCN(C2CC3CC2c2ccccc23)CC1 (stereo not shown): 6.03
- c1ccc2c(c1)C1CC(CN3CCCCC3)C2C1 (stereo not shown): 8.05
- c1ccc2c(c1)C1CC2C(N2CCCCC2)C1 (stereo not shown): 10.12
- CN1CCN(CC2CC3CC2c2ccccc23)CC1 (stereo not shown): 4.66

---

EXPERIMENTAL_TARGET: sigma receptor (Rattus norvegicus, UniProt Q9R0C9)
Construct: crude membrane preparations were prepared as follows; Brains from male Sprague-Dawley rats; from tissue; host or cells: whole brain of male Sprague-Dawley rats, crude membranes
Sequence (Q9R0C9 whole entry): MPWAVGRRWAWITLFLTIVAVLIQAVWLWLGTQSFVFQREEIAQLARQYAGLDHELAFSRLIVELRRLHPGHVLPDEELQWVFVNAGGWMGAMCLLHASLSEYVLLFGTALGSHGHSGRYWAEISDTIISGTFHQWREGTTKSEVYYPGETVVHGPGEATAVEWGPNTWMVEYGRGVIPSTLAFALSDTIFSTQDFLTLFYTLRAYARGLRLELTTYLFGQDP
PROTOCOL_NOTES: Radioreceptor assay: sigma receptor binding (displacement of [3H]-3-(+)-PPP) in crude rat brain membranes
Design: species or system male Sprague-Dawley rats
CONDITIONS_USED: [3H]-3-(+)-PPP 2 nM; rat brain crude membranes; 1 hr, room temperature; ± SEM; Table II; read-out: Ki apparent (units ± SEM)
Below is a list of entries, each paired with its recorded Ki value.
TEST_READOUT: Ki

• CN1CCN(CC2CC3CCC2c2ccccc23)CC1 (stereo not shown) [Compound No. 3] = 4 nM
• CN1CCN(C2CC3CCC2c2ccccc23)CC1 (stereo not shown) [Compound No. 4] = 170 nM
• c1ccc2c(c1)C1CCC2C(N2CCCCC2)C1 (stereo not shown) [Compound No. 1] = 137 nM
• c1ccc2c(c1)C1CCC2C(CN2CCCCC2)C1 (stereo not shown) [Compound No. 2] = 11 nM
